Here the recorded PHA assay IC50 is given for each entry.
# assayedSystem: T1, human IL-12 (human, UniProt P29459 23-219; P29460 23-328)
# T1 sequence (looked up) 1: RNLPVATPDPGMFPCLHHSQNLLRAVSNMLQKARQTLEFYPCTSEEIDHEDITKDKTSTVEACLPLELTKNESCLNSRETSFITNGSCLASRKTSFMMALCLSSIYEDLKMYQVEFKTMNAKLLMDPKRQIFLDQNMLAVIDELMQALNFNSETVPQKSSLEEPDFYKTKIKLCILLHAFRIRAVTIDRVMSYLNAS
# T1 sequence (looked up) 2: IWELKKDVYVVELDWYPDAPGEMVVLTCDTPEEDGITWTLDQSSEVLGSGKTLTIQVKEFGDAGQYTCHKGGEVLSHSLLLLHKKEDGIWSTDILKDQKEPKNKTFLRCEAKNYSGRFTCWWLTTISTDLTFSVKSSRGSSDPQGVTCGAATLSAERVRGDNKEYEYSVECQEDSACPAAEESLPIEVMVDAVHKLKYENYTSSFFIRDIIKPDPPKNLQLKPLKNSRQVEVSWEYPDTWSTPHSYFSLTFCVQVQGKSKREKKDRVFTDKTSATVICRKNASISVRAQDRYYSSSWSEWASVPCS
# assayInfo: cell-based or functional assay

Reference set, count: 2
[[record]]
binder = "103-4 (scFv, V domains shown, scFv) VH: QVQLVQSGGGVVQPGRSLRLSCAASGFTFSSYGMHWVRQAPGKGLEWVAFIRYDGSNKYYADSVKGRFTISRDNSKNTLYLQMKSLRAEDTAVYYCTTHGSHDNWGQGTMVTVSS VL: SYVLTQPPSVSGTPGQRVTISCSGGRSNIVSNTVKWYQQLPGTAPKLLIYGNDQRPSGVPDRFSGSKSGTSASLAITGVQAEDEADYYCQSYDRGFTGARVFGTGTKVTVL"
observedvalue = "0.9 nM"

[[record]]
binder = "149-11 (scFv, V domains shown, scFv) VH: QVQLVQSGGGVVQPGRSLRLSCAASGFTFSSYGMHWVRQAPGKGLEWVAFIRYDGSNKYYADSVKGRFTISRDNSKNTLYLQMKSLRAEDTAVYYCTTHGSHDNWSQGTMVTVSS VL: SYVLTQPPSVSGTPGQRVTISCSGGRSNIGSNTVKWYQQLPGTAPKLLIYGNDQRPSGVPDRFSGSKSGTSASLAITGVQAEDEADYYCQSYDNGFTGARVFGTGTKVTVL"
observedvalue = "4 nM"


Consider the additional binder presented here.
Return PHA assay IC50 (reported value) for this binder: 26-1 (scFv, V domains shown, scFv; also called 26-1 (2, 3)) VH: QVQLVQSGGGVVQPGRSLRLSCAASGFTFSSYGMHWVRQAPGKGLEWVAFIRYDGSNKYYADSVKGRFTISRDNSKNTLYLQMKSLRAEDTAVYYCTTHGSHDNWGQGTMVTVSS VL: SYVLTQPPSVSGTPGQRVTISCSGGRSNIGSNTVKWYQQLPGTAPKLLIYGNDQRPSGVPDRFSGSKSGTSASLAITGVQAEDEADYYCQSYDSSLWGSRVFGTGTKVTVL
60 nM
